B1: RSPH3 (parent)
chain: LELQRQREARKRALARKQAQEQLR

Variants of: B1
procedure_text: protein stability index of a GFP-peptide fusion (GPS, HEK-293T) (PSI 1-6); higher = more stable;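 further: lentivirally expressed fusions sorted by FACS into six bins by GFP to DsRed ratio, PSI derived from sequencing read proportions per bin multiplied by bin number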
condition_notes: c terminus: a fixed tail appended
Quick reference: protein stability index of the listed items.
readout: protein stability index

Q18E: 3.86
A9T: 3.31
L1W: 2.71
L1M: 4.24
L1I: 3.29
Q20F: 2.02
R24Q: 4.54
R10C: 3.43
L23T: 4.08
L14K: 3.46
Q22I: 2.65
R7I: 3.25
A13Y: 3.49
E2R: 3.57
E21Y: 3
A19H: 4.33
A9Q: 3.32
E8W: 3
L3I: 3.74
Q6A: 4.14
A15R: 3.15
L14V: 4.13
